Values were extracted from patent US20240084003A1.

Measured OD450 accompanies every entry in the list below.
# tested-target: T1, monkey CD22 protein (ACROBiosystems, catalog number SI2-R52Ha) (monkey, UniProt F6W485 20-688)
# T1 construct: commercial protein; also called monkey CD22-ECD; monkey CD22-ECD-His
# T1 sequence: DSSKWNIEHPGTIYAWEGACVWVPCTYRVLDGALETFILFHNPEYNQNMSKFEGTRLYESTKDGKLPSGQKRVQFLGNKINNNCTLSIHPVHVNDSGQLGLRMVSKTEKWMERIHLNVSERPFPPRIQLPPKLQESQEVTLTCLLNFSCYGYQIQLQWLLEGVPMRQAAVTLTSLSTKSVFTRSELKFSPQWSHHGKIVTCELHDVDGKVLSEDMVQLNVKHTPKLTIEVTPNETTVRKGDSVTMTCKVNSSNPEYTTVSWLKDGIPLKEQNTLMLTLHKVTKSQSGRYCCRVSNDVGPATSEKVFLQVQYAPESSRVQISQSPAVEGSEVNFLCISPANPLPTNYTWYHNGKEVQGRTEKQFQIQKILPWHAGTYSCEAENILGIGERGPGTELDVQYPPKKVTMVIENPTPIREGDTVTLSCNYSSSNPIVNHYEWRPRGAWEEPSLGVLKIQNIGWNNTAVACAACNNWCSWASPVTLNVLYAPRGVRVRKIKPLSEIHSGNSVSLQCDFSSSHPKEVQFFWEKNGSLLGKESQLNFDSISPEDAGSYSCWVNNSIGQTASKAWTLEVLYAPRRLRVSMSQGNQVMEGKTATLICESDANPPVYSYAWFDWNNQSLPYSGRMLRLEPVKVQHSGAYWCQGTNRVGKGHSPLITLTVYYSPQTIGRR
# method-summary: ELISA, coated monkey CD22 protein, antibody 0.00001 nM
observed-property: OD450 (OD450)

binder	observed-property	measured-value
F2.343.16 (antibody, human IgG1, lambda, V domains shown, human-murine chimeric IgG1 lambda; VL name legible) VH: QVQLKQSGPGLVQPSQSLSITCTVSGFSLTGYGVQWVRQSPGKGLEWLGVIWGGGGTDYNAAFISRLNIIKDNSKSQVFFKMNSLQADDTAIYYCARYSKYGHFDVWGTGTAVTVSS VL: QAVVTQESALTTSPGETVTLTCRSSTGAVTTSNYANWVQEKPDHLFTGLIGGTYNRVPGVPARFSGSLIGDKAALTITGAQTEDEAIYFCALWYSNHFWVFGGGTKLTVLG	OD450	0.05
F2.42.9 (antibody, human IgG1, lambda, V domains shown, human-murine chimeric IgG1 lambda; VL name legible) VH: QVTLKESGPGILQPSQTLSLTCSFSGFSLSTFDRGVGWIRQPSGKGLEWLAHIWWNDKKFYNPVLKSRLTISKDTSKNQVFLTIANVDSADTATYSCARIVWDKYYFDYWGQGIPLTVSS VL: QLVLTQSSSASFSLGASAKLTCTLSSQHSAYTIEWYQQQPLKPPKFVMDLKKDGSHSTGDGIPARFSGSSSGADRYLTISNIQPEDEAIYICGVGDTIKEQYVFGGGTKVTVLG	OD450	0.07
F1.60.9 (antibody, human IgG1, kappa, V domains shown, human-murine chimeric IgG1 kappa) VH: QVQLKESGPGLVAPSQSLSITCTVSGLSLNNYGVSWVRQPPGKGLEWLGVIWGDGSTNYHSALISRLSISKDNSKSQVFLKLNSLHTDDTATYYCAINWGDYWGQGTTLIVSS VL: DIKMTQSPSSMNASLGERVTITCKASQDINSYLSWFQQKPGKSPKILIYRANRLIDGVPSRFSGSGSGQDYSLTISSLEYEDMGIYYCLQYGVFPLTFGAGTKLELKR	OD450	0.06
F1.245.2 (antibody, human IgG1, kappa, V domains shown, human-murine chimeric IgG1 kappa) VH: EVQLQQSGAELVKPGASVKLSCTGSGFNIKDYYIHWVKQRTEQGLEWMGRIDPEDGETEYAPKFQDEATITSDTSSNTAYLQLSSLTYEDTAVYYCAREAAGYFYRGSSYGYFDVWGTGTTVTVSS VL: DFQMTQTTSFLSASLGDRVTISCSASQDISNYLNWYQQKPDGTVKLLIYYTSSLHSGVPSRFSGSGSGTDYSLTISNLEPEDIATYYCQQYSMLPYTFGGGTKLEMER	OD450	0.06
